compounds and their reported EC50
- measured-target: Protein RecA (Mycobacterium tuberculosis, UniProt P9WHJ3)
- Sequence (P9WHJ3 whole entry): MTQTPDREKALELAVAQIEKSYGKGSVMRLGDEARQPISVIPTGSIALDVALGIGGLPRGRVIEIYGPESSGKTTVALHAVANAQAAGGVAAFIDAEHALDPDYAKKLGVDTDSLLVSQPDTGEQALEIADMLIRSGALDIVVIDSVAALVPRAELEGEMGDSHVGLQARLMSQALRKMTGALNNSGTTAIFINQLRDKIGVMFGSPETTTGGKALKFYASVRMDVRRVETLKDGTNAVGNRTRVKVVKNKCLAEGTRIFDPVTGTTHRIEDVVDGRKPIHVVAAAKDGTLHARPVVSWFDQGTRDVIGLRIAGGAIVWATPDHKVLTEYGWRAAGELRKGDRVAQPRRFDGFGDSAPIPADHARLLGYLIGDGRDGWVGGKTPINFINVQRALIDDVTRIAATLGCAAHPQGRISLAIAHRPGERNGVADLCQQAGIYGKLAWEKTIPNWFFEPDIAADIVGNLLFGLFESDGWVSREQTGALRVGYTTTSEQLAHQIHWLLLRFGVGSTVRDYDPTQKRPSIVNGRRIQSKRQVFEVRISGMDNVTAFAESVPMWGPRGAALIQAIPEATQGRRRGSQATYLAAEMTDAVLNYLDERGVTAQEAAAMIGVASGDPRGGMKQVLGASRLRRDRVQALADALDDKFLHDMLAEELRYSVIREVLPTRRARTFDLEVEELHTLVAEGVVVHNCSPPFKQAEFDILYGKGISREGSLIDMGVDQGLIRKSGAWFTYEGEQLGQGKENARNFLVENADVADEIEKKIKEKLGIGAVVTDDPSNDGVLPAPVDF
- experiment-notes: Fluorescence Cell-Free Homogeneous Dose Retest to Identify Inhibitors of RecA-Intein Splicing Activity. [Related pubchem assays (depositor defined):AID2097, AID2223, AID489010, AID492950]
- Assay type: functional
Calls of active or inactive are those of the source. Rule as the data show it: actives have a measured EC50 and inactives only a lower limit.

Study these solved cases before continuing.
Cc1cccc(N(Cc2ccccc2)C(=O)CCl)c1	0.536 µM (active)
CCOC(=O)Cn1cc(/C=N/NC(=O)CC#N)c2ccccc21	6.38 µM (active)
Nc1ccc2ncccc2c1	5.95 µM (active)

Endpoint output: EC50 of Cc1c(OCC(=O)Nc2cccnc2)ccc2c3c(c(=O)oc12)CCC3 . Value?
2.26 µM (active)

Endpoint output: EC50 of COC(=O)Cc1n[nH]c2c1C(c1c[nH]c3ccccc13)C(C#N)=C(N)O2 (configuration not stated) . Value?
> 380 µM (inconclusive)

Endpoint output: EC50 of CCCCOc1ccc(C2C3CN(C(=O)OCC)CC=C3C(C#N)=C(N)C2(C#N)C#N)cc1OC (configuration not stated) . Value?
29.8 µM (active)

Endpoint output: EC50 of CCOC(=O)c1nnn(-c2nonc2-n2cccc2)c1CCl . Value?
1.42 µM (active)
